# Test name: yeast display, Sf9 membrane polyspecificity reagent, FACS + sequencing; frameworks hold sequencing errors
Readout kind: polyreactivity (PSR sort gate)

Solved cases below.
Biopolymer sequence	Result
QVQLVESGGGLVQAGGSLRLSCAASGRTLADNAMGWYRQAPGKERELVAAITFSGDTTYYADSVKGRFTISRDNAKNTVYLQMNSLKPEDTAVYYCAAESSDPRAYDYWGQGTQVTVSS	low polyreactivity
QVQLVESGGGLVQAGGSLRLSCAASGFTFTRYAMGWSRQAPGKETELVAAISSGSRTYYADSVKGRFTISRDNAKNTVYLQMNSLKPEDTAVYYCAAPVYTYYGHYDSWGQGTQVTVSS	high polyreactivity
QVQLVESGGGLVQAGGSLRLSCAASGFTFQYYAMGWYRQAPGKERELVAAISWSGDSTYYADSVKGRFTISRDNAKNTVYLQMNSLKPEDTAVYYCAVYYTRGYDYWGQGTQVTVSS	high polyreactivity
QVQLVESGGGLVQAGGSLRLSCAASGSTLYKYAMVWYRQAPGKEREFVAAITRSGGSTYYADSVKGRFTISRDNAKNTVDLQMNSLKPEDTAVYYCAARVRVYSGWLYNYWGQGTQVTVSS	high polyreactivity
QVQLVESGGGVVQAGGSLRLSCAASVSIFDDYAMGWYRQAPGKERELVASISRTGRTYYADSVKGRFTISRDNAKNTVYLQMNSLKPEDTAVYYCAATRYAPYRRYYYWGQGTQVTVSS	high polyreactivity
QVQLVESGGGLVQAGGSLRLSCSASGLIFYDYDMGWYRQAPGKERELVAAISNDASTYYADSVKGRFTISRDNGKNTVYFQMNSLKPEDTAVYYCAAEPYVFGLSSKPFWYNYWGQGTQVTVSS	low polyreactivity

Item: `QVHLVESGGGLVQAGGSLRLSCAASGYTIRRNAMGWYRQAPGKERELVAAITSGGSTDYADSVKGRFTISRDNAKNTVYLQMISLKPEDTAVYYCAADGIYRGAWSTVYESPGYDYWGQGTQVTVSS` | polyreactivity (PSR sort gate): low polyreactivity

Item: `QVQLVESGGGLVQAGGSLRLSCAASGRIFPQNAMGWYRQAPGKERELVAVITGNGSTYYADSVKGRFTISRDNAKNTVYLQMNSLKPEDTAVYYCAARVSWPYHRGARDYWGQGTQVTVSS` | polyreactivity (PSR sort gate): low polyreactivity

Item: `QVQLVESGGGLVQAGGSLRLSCAASGFIFAYYALGWYRQAPGKERELVAAITWSGGRTYYADSVKGRFTISRDNAKNTVYLQMNSLKPEDTAVYYCNAVRPSVDYGYWGQGTQVTVSS` | polyreactivity (PSR sort gate): high polyreactivity

Item: `QVQLVESGGGLVQAGGSLRLSCAASVSTFRWYAMGWYRQAPGKERELVAAISWSGSTTYYADSVKGRFTISRDNAKNTVYLQMNSLKPEDTAVYYCAAEVVFFGWNYDYWGQGTQVTVSS` | polyreactivity (PSR sort gate): high polyreactivity

Item: `QVQLVESGGGLLQAGGSLRLSCAASGRTFNYYAMGWYRQAPWKESELVADIRGRGGSTYYADSVKGRFTISRDNAKITVYLQMNSLKPEDKAVYYCARRSPYPYSIYYYWGQGTQVTVSS` | polyreactivity (PSR sort gate): high polyreactivity
